Known fold difference in affinity vs original of a selection of binders
system_under_test: binding partner of C5A (XPA23)
procedure_summary: Biacore
reported_property: fold difference in affinity vs original (fold)

binder	reported_property	observed_value
C5A (XPA23) VH T58P (antibody, V domains shown) VH: EVQLLESGGGLVQPGGSLRLSCAASGFTFSKYFMFWVRQAPGKGLEWVSVISPSGGMPRYADSVKGRFTISRDNSKNTLYLQMNSLRAEDTAVYYCARVGYGGNSDYWGQGTLVTVSS VL: DIQMTQSPSSVSASVGDRLTIICRASQDINRWLAWYQQTPGNAPKLLIHSATSLQSGVPSRFSGSGSGTDFTLTINSLQPEDFATYYCQQADSFPLTFGGGTKVEIK	fold difference in affinity vs original	1.81
C5A (XPA23) VH I51V (antibody, V domains shown) VH: EVQLLESGGGLVQPGGSLRLSCAASGFTFSKYFMFWVRQAPGKGLEWVSVVSPSGGMTRYADSVKGRFTISRDNSKNTLYLQMNSLRAEDTAVYYCARVGYGGNSDYWGQGTLVTVSS VL: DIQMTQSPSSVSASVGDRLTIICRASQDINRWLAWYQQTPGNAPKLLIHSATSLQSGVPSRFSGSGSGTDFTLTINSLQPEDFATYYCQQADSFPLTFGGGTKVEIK	fold difference in affinity vs original	0.99
C5A (XPA23) VH F33I (antibody, V domains shown) VH: EVQLLESGGGLVQPGGSLRLSCAASGFTFSKYIMFWVRQAPGKGLEWVSVISPSGGMTRYADSVKGRFTISRDNSKNTLYLQMNSLRAEDTAVYYCARVGYGGNSDYWGQGTLVTVSS VL: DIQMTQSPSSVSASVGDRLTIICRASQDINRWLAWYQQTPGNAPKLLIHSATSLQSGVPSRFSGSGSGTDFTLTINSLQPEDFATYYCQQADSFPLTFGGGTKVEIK	fold difference in affinity vs original	0.75
C5A (XPA23) VH Y107V (antibody, V domains shown) VH: EVQLLESGGGLVQPGGSLRLSCAASGFTFSKYFMFWVRQAPGKGLEWVSVISPSGGMTRYADSVKGRFTISRDNSKNTLYLQMNSLRAEDTAVYYCARVGYGGNSDVWGQGTLVTVSS VL: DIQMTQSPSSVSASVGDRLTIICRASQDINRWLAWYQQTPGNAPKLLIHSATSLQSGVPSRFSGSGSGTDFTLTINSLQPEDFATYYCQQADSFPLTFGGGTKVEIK	fold difference in affinity vs original	0.93
